# target.under.test: T1, human ICOS-hFc (homodimeric, bivalent) (human, UniProt Q9Y6W8 21-141)
# T1 construct: also called hICOS-Fc; hICOS-hFc; not shown: human IgG1 Fc (IgG1 backbone)
# T1 sequence: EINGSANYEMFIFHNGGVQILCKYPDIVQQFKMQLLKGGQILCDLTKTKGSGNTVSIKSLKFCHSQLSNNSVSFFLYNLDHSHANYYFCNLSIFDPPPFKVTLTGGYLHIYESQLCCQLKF
# method: BLI (Octet RED96), full-length IgG vs homodimeric ICOS-Fc (avid)
metric: Kd

[
  {
    "binder": "16G10 (antibody, V domains shown, Armenian hamster monoclonal tested as IgG; also called hamster anti-ICOS 16G10) VH: EVQLVESGGGLVKPGGSLKLSCAASGFTFSDYWMDWVRQAPGKGLEWVGNIDHDGNIINFAPSVKGRFTISRDNAKNTLYLQMNSVKSEDTATYYCARWGHYAFDSWGQGTLVTVSS VL: DIVMTQSPSSLAVSAGDKVTINCKSSQSLLSSGYNYLIWYQQKTGQAPKLLIFYASTRHTGVPDRFIGSGSGTDFTLTITSFQTEDLGDYYCQHHYSSPPTFGPGTKLEIK",
    "value": "< 1 pM"
  }
]
